Origin of values: patent US20020173452A1

Collected pIC50 values appear next to each entry.
- Test system: HT29 human large intestine cell line
- Assay explanation: Growth inhibition test (MTT) for cytotoxic properties on tumour cell lines
- Type: cell-based
- Experimental setup: HT29 cells, growth checked after day 6, read-out: IC50 of the cytotoxic action on tumour cell lines, HT29
Where a SMILES comes first, the peptide text is derived from it. [ ]: non-standard residue; d: D form. The star is where a group is joined. X8 = C[C@H]1OC(Oc2ccc(NC(=S)*)cc2)[C@@H](O)[C@@H](OCC(=O)O)[C@H]1O; X4 = CO[C@H]1[C@H](O)[C@@H](Oc2ccc(NC(=S)*)cc2)O[C@@H](C)[C@H]1O; X2 = CC[C@@]1(O*)C(=O)OCc2c1cc1n(c2=O)Cc2cc3ccccc3nc2-1
pIC50 (log units): -log10 of the concentration in mol/L.

- Compound: "CC[C@@]1(OC(=O)[C@@H](NC(=O)[C@@H]2CCCN2C(=O)[C@H](CC(C)C)NC(=O)CNC(=O)[C@H](CC(C)C)NC(=O)[C@@H]2CCCN2C(=S)Nc2ccc(O[C@H]3O[C@@H](C)[C@@H](O)[C@@H](OC)[C@@H]3O)cc2)C(C)C)C(=O)OCc2c1cc1n(c2=O)Cc2cc3ccccc3nc2-1 [Example 21] (X4-PLGLPV-X2)"
  Tested system: "HT29 human large intestine cell line"
  Property label: "pIC50"
  Observed result: 6.60
- Compound: "CC[C@@]1(OC(=O)[C@H](NC(=O)[C@@H](CC(N)=O)NC(=O)[C@@H](CC(C)C)NC(=O)CNC(=O)[C@H](CC(C)C)NC(=O)[C@H]2CCCN2C(=S)Nc2ccc(OC3O[C@H](C)[C@H](O)[C@H](OCC(=O)O)[C@@H]3O)cc2)C(C)C)C(=O)OCc2c1cc1n(c2=O)Cc2cc3ccccc3nc2-1 (stereo partly drawn) [Example 23] (X8-[dP]LG[dL][dN][dV]-X2)"
  Tested system: "HT29 human large intestine cell line"
  Property label: "pIC50"
  Observed result: 6.92

Known value: HT29 human large intestine cell line pIC50 of the compound CC[C@@]1(OC(=O)[C@@H](NC(=O)[C@H](Cc2ccccc2)NC(=O)[C@H](CC(C)C)NC(=O)CNC(=O)[C@H](CC(C)C)NC(=O)[C@@H]2CCCN2C(=S)Nc2ccc(O[C@H]3O[C@@H](C)[C@@H](O)[C@@H](OC)[C@@H]3O)cc2)C(C)C)C(=O)OCc2c1cc1n(c2=O)Cc2cc3ccccc3nc2-1 [Example 16] (X4-PLGLFV-X2) equals 7.10

* * *

Collected pIC50 values appear next to each entry.
- Tested on: B16F10 mouse melanoma cell line
- Assay explanation: Growth inhibition test (MTT) for cytotoxic properties on tumour cell lines
- Format: cell-based
- Experimental setup: B16F10 cells, growth checked after day 6, read-out: IC50 of the cytotoxic action on tumour cell lines, B16F10
Where a SMILES comes first, the peptide text is derived from it. [ ]: non-standard residue; d: D form. The star is where a group is joined. X1 = CO[C@H]1[C@@H](O)[C@@H](C)OC(Oc2ccc(NC(=S)*)cc2)[C@H]1O; X7 = OC[C@H]1OC(Oc2ccc(NC(=S)*)cc2)[C@@H](O)[C@@H](O)[C@H]1O; X2 = CC[C@@]1(O*)C(=O)OCc2c1cc1n(c2=O)Cc2cc3ccccc3nc2-1
pIC50 (log units): -log10 of the concentration in mol/L.

Measured pIC50, CC[C@@]1(OC(=O)[C@H](NC(=O)[C@@H](CC(N)=O)NC(=O)[C@@H](CC(C)C)NC(=O)CNC(=O)[C@H](CC(C)C)NC(=O)[C@H]2CCCN2C(=S)Nc2ccc(OC3O[C@H](CO)[C@H](O)[C@H](O)[C@@H]3O)cc2)C(C)C)C(=O)OCc2c1cc1n(c2=O)Cc2cc3ccccc3nc2-1 (stereo partly drawn) [Example 24] (X7-[dP]LG[dL][dN][dV]-X2) : 6.30

Measured pIC50, CC[C@@]1(OC(=O)[C@H](NC(=O)[C@@H](CSC)NC(=O)[C@@H](CC(C)C)NC(=O)CNC(=O)[C@H](CC(C)C)NC(=O)[C@H]2CCCN2C(=S)Nc2ccc(OC3O[C@H](C)[C@H](O)[C@H](OC)[C@@H]3O)cc2)C(C)C)C(=O)OCc2c1cc1n(c2=O)Cc2cc3ccccc3nc2-1 (stereo partly drawn) [Example 8] (X1-[dP]LG[dL][dC](Me)[dV]-X2) : 6.82
